B1: Twister Ribozyme (parent)
chain: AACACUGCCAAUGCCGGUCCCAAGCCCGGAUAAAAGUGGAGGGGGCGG

- Variants of: B1
- protocol.notes: self-cleavage, relative activity (ratio to wild type); higher = more cleavage; co-transcriptional
Measured self-cleavage accompanies every entry in the list below.
Provide a numeric answer; units are not to be included.

Some variants with known self-cleavage results, for comparison:
U12A G48C : 1.22
G13A G41C : 0.17
A1U G7U : 0.059
G7A A35U : 0.546
G16U G39A : 0.595

Request: So what does the record say about self-cleavage for A32C G38C ?
Response: 0.89

Request: Follow-up item: A10U A23C
Response: 0.182

Request: Follow-up item: G17U G45A
Response: 0.148

Request: Follow-up item: G13C C20G
Response: 0.0962

Request: Follow-up item: G36U G41A
Response: 0.124

Request: Follow-up item: U31C G38A
Response: 0.81

Request: Follow-up item: U6A C8A
Response: 0.104

Request: Follow-up item: C20G G36U
Response: 0.0382

Request: Follow-up item: C9A G16A
Response: 0.372

Request: Follow-up item: A23U G48U
Response: 0.439

Request: Follow-up item: C3G G36A
Response: 0.124

Request: Follow-up item: C5U A23U
Response: 0.306
